Where do these numbers come from? They come from ChEMBL document CHEMBL1649284.

assay: Drug level in healthy human epithelial lining fluid at 6 mg/kg, iv for every 12 hrs on day 1 as 120 mins infusions followed by maintenance dose of 4 mg/kg every 12 hrs on day 2 and single 4 mg/kg dose on day 3 as 100 mins infusions after 8 hrs of last dose; format: ADME, organism-based; details: read-out: Drug uptake
metric_name: concentration at 8 h (ng/mL)
Answer format: numeric, ng/mL implied, no suffix.

Ask: Would you mind telling me what concentration at 8 h value was observed for C[C@@H](c1ncncc1F)[C@](O)(Cn1cncn1)c1ccc(F)cc1F [VORICONAZOLE] ?
Reply: 10100

* * *

assay: Drug level healthy human epithelial lining fluid at 200 mg, iv on day 1 as 200 mins infusion followed by maintenance dose of 100 mg every 24 hrs on days 2 and 3 as 100 mins infusions after 24 hrs of last dose; format: ADME, organism-based; conditions: read-out: Drug uptake
Numbered stars: 1 amine (or outer) side, 2 acyl side, 3 side chain; on linkers, the order of the positions; unused ones are H or OH. Bridge positions count the residues as written; N and C are the ends. Square brackets hold non-standard residues; d marks the D form. Peptide text beside a SMILES is read from it. * marks the point of attachment. pTerphenylCO(4''-OnC5H11) = CCCCCOc1ccc(-c2ccc(-c3ccc(C(=O)*)cc3)cc2)cc1; Orn(4R-OH,5R-OH) = O=C([C@H](C[C@@H](O)[C@@H](O)N[*:3])N[*:1])[*:2]; hTyr(3S-OH,4S-OH) = N[C@H](C(=O)O)[C@H](O)[C@@H](O)c1ccc(O)cc1; Pro(3S-OH,4S-Me) = C[C@H]1CN[C@H](C(=O)O)[C@H]1O; Hyp = O=C(O)[C@@H]1C[C@@H](O)CN1
metric_name: concentration at 24 h
Kindly write the number and append the unit.

Ask: Endpoint output: concentration at 24 h of CCCCCOc1ccc(-c2ccc(-c3ccc(C(=O)N[C@H]4C[C@@H](O)[C@@H](O)NC(=O)[C@@H]5[C@@H](O)[C@@H](C)CN5C(=O)[C@H]([C@@H](C)O)NC(=O)[C@H]([C@H](O)[C@@H](O)c5ccc(O)cc5)NC(=O)[C@@H]5C[C@@H](O)CN5C(=O)[C@H]([C@@H](C)O)NC4=O)cc3)cc2)cc1 [ANIDULAFUNGIN] ({pTerphenylCO(4''-OnC5H11)}-[Orn(4R-OH,5R-OH)]T[Hyp][hTyr(3S-OH,4S-OH)]T[Pro(3S-OH,4S-Me)]; lactam 1-C) . Value?
Reply: 1100 ng/mL

* * *

experiment: Drug level healthy human alveolar macrophage at 200 mg, iv on day 1 as 200 mins infusion followed by maintenance dose of 100 mg every 24 hrs on days 2 and 3 as 100 mins infusions after 12 hrs of last dose; format: ADME, organism-based; conditions: alveolar macrophages, read-out: Drug uptake
Numbered stars: 1 amine (or outer) side, 2 acyl side, 3 side chain; on linkers, the order of the positions; unused ones are H or OH. Bridge positions count the residues as written; N and C are the ends. Square brackets hold non-standard residues; d marks the D form. Peptide text beside a SMILES is read from it. * marks the point of attachment. pTerphenylCO(4''-OnC5H11) = CCCCCOc1ccc(-c2ccc(-c3ccc(C(=O)*)cc3)cc2)cc1; Orn(4R-OH,5R-OH) = O=C([C@H](C[C@@H](O)[C@@H](O)N[*:3])N[*:1])[*:2]; hTyr(3S-OH,4S-OH) = N[C@H](C(=O)O)[C@H](O)[C@@H](O)c1ccc(O)cc1; Pro(3S-OH,4S-Me) = C[C@H]1CN[C@H](C(=O)O)[C@H]1O; Hyp = O=C(O)[C@@H]1C[C@@H](O)CN1
metric_name: concentration at 12 h (ng/mL)
Response body: numeric value in ng/mL, unit text excluded.

Ask: What value of concentration at 12 h has been recorded for this entry: CCCCCOc1ccc(-c2ccc(-c3ccc(C(=O)N[C@H]4C[C@@H](O)[C@@H](O)NC(=O)[C@@H]5[C@@H](O)[C@@H](C)CN5C(=O)[C@H]([C@@H](C)O)NC(=O)[C@H]([C@H](O)[C@@H](O)c5ccc(O)cc5)NC(=O)[C@@H]5C[C@@H](O)CN5C(=O)[C@H]([C@@H](C)O)NC4=O)cc3)cc2)cc1 [ANIDULAFUNGIN] ({pTerphenylCO(4''-OnC5H11)}-[Orn(4R-OH,5R-OH)]T[Hyp][hTyr(3S-OH,4S-OH)]T[Pro(3S-OH,4S-Me)]; lactam 1-C)
Reply: 42700

* * *

test: Drug level healthy human alveolar macrophage at 200 mg, iv on day 1 as 200 mins infusion followed by maintenance dose of 100 mg every 24 hrs on days 2 and 3 as 100 mins infusions after 8 hrs of last dose; assay type: ADME, organism-based; details: alveolar macrophages, read-out: Drug uptake
Numbered stars: 1 amine (or outer) side, 2 acyl side, 3 side chain; on linkers, the order of the positions; unused ones are H or OH. Bridge positions count the residues as written; N and C are the ends. Square brackets hold non-standard residues; d marks the D form. Peptide text beside a SMILES is read from it. * marks the point of attachment. pTerphenylCO(4''-OnC5H11) = CCCCCOc1ccc(-c2ccc(-c3ccc(C(=O)*)cc3)cc2)cc1; Orn(4R-OH,5R-OH) = O=C([C@H](C[C@@H](O)[C@@H](O)N[*:3])N[*:1])[*:2]; hTyr(3S-OH,4S-OH) = N[C@H](C(=O)O)[C@H](O)[C@@H](O)c1ccc(O)cc1; Pro(3S-OH,4S-Me) = C[C@H]1CN[C@H](C(=O)O)[C@H]1O; Hyp = O=C(O)[C@@H]1C[C@@H](O)CN1
metric_name: concentration at 8 h
I'd appreciate it if you wrote the number followed by its unit.

Ask: Given CCCCCOc1ccc(-c2ccc(-c3ccc(C(=O)N[C@H]4C[C@@H](O)[C@@H](O)NC(=O)[C@@H]5[C@@H](O)[C@@H](C)CN5C(=O)[C@H]([C@@H](C)O)NC(=O)[C@H]([C@H](O)[C@@H](O)c5ccc(O)cc5)NC(=O)[C@@H]5C[C@@H](O)CN5C(=O)[C@H]([C@@H](C)O)NC4=O)cc3)cc2)cc1 [ANIDULAFUNGIN] ({pTerphenylCO(4''-OnC5H11)}-[Orn(4R-OH,5R-OH)]T[Hyp][hTyr(3S-OH,4S-OH)]T[Pro(3S-OH,4S-Me)]; lactam 1-C) , state its recorded concentration at 8 h.
Reply: 37900 ng/mL

* * *

experiment: Drug level in healthy human alveolar macrophage at 6 mg/kg, iv for every 12 hrs on day 1 as 120 mins infusions followed by maintenance dose of 4 mg/kg every 12 hrs on day 2 and single 4 mg/kg dose on day 3 as 100 mins infusions after 4 hrs of last dose; type: ADME, organism-based; conditions: alveolar macrophages, read-out: Drug uptake
metric_name: concentration at 4 h (ng/mL)
Hi! Could you send only the number? It should be in ng/mL, unit omitted.

Ask: Fill in: concentration at 4 h of C[C@@H](c1ncncc1F)[C@](O)(Cn1cncn1)c1ccc(F)cc1F is ___
Reply: 20600

* * *

experiment: Elimination half life in healthy human at 200 mg, iv on day 1 as 200 mins infusion followed by maintenance dose of 100 mg every 24 hrs on days 2 and 3 as 100 mins infusions; format: ADME, organism-based; details: in vivo, read-out: beta t1/2 (converted)
Numbered stars: 1 amine (or outer) side, 2 acyl side, 3 side chain; on linkers, the order of the positions; unused ones are H or OH. Bridge positions count the residues as written; N and C are the ends. Square brackets hold non-standard residues; d marks the D form. Peptide text beside a SMILES is read from it. * marks the point of attachment. pTerphenylCO(4''-OnC5H11) = CCCCCOc1ccc(-c2ccc(-c3ccc(C(=O)*)cc3)cc2)cc1; Orn(4R-OH,5R-OH) = O=C([C@H](C[C@@H](O)[C@@H](O)N[*:3])N[*:1])[*:2]; hTyr(3S-OH,4S-OH) = N[C@H](C(=O)O)[C@H](O)[C@@H](O)c1ccc(O)cc1; Pro(3S-OH,4S-Me) = C[C@H]1CN[C@H](C(=O)O)[C@H]1O; Hyp = O=C(O)[C@@H]1C[C@@H](O)CN1
metric_name: half-life (h)
Numeric answer only, unit h assumed.

Ask: Query (compound): CCCCCOc1ccc(-c2ccc(-c3ccc(C(=O)N[C@H]4C[C@@H](O)[C@@H](O)NC(=O)[C@@H]5[C@@H](O)[C@@H](C)CN5C(=O)[C@H]([C@@H](C)O)NC(=O)[C@H]([C@H](O)[C@@H](O)c5ccc(O)cc5)NC(=O)[C@@H]5C[C@@H](O)CN5C(=O)[C@H]([C@@H](C)O)NC4=O)cc3)cc2)cc1 [ANIDULAFUNGIN] ({pTerphenylCO(4''-OnC5H11)}-[Orn(4R-OH,5R-OH)]T[Hyp][hTyr(3S-OH,4S-OH)]T[Pro(3S-OH,4S-Me)]; lactam 1-C) ; field requested: half-life
Reply: 20.8
